measurement target: Cellular tumor antigen p53 (Homo sapiens) (UniProt P04637)
Sequence (P04637 whole entry, looked up): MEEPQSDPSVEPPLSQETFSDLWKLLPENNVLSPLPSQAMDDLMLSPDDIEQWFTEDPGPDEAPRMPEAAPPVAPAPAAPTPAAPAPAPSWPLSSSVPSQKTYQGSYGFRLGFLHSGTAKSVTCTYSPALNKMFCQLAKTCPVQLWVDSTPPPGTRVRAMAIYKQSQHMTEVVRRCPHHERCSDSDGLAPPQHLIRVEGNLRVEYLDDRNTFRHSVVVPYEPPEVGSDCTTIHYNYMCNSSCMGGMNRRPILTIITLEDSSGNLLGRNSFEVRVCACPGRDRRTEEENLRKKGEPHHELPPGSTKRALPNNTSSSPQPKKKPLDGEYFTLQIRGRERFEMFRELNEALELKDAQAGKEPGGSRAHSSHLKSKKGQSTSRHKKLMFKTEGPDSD
procedure summary: TOX21_p53_BLA_p4_ratio: Tox21 HCT-116 p53 Agonism Beta-lactamase Assay, Ratio, Phase 4 (AID 2283601)
Inconclusive results are not listed. The source made the active and inactive calls. The calls were made as follows: active = hit-call score of the fitted dose curve at least 0.9, where 1 is the maximum; inconclusive = response in the unintended direction; inactive = score below 0.9.
Lab note: assign the record to one of active, inactive

# count of solved cases: 3
CCNc1cc(O)ccc1C :: inactive
NC1(c2ccc(-c3nc4ccn5c(=O)[nH]nc5c4cc3-c3ccccc3)cc2)CCC1 :: inactive
OC(CN1CCC(Cc2ccc(F)cc2)CC1)c1ccc(Cl)cc1 (stereo not given) :: inactive

Task item: What was the test verdict on O=[N+]([O-])c1ccc(ON=Cc2cc(Br)c(O)c(Br)c2)c([N+](=O)[O-])c1 ?
Reply: active
